Task for the reader: assign each of the following molecules its reported GI50.

GET /values?readout=GI50&system=HCT-15&item= CC1CNC(c2cccc(-c3nc(-c4cccc(C5=NC(C)CN5)c4)nc(N(C)C)n3)c2)=N1 (stereo not given) 8.34 µM

GET /values?readout=GI50&system=HCT-15&item= O=C(CC1C(=O)Nc2ccccc2[S+]1[O-])Nc1ccccc1 (stereo not given) > 100 µM

GET /values?readout=GI50&system=HCT-15&item= O=C1Nc2ccccc2C(=O)/C1=C/NC(=S)NCCc1ccccc1 > 100 µM

GET /values?readout=GI50&system=HCT-15&item= Cc1nc2ccc(F)cc2c2c1CCO2 > 100 µM

GET /values?readout=GI50&system=HCT-15&item= CCCCCCCCCCCCCCCCOCC(Cl)COP(=O)(O)OP(=O)(O)OCC1OC(n2cnc3c(N)ncnc32)C(O)C1O (stereo not given) > 100 µM

----------
tested on: XF498; assay: NCI tumour cell line growth inhibition, 48 h
Calls of active or inactive are those of the source. Cut-off read from the data, not from the text of the source: active = GI50 up to about 1.1 µM and inactive = higher.
Quantity: GI50

GET /values?readout=GI50&system=XF498&item= CC(CN1CCN(CC(C)Nc2ccnc3cc(Cl)ccc23)CC1)Nc1ccnc2cc(Cl)ccc12 (stereo unspecified) 23.3 µM (inactive)

GET /values?readout=GI50&system=XF498&item= CN1C2CCC1/C(=C/c1cccc3c1OCO3)C(=O)/C2=C\c1cccc2c1OCO2 25.3 µM (inactive)

GET /values?readout=GI50&system=XF498&item= Clc1ccccc1C(n1ncc2ccccc21)n1ncc2ccccc21 14.5 µM (inactive)

GET /values?readout=GI50&system=XF498&item= O=C(CC1Sc2ccccc2NC1=O)Nc1ccc(Cl)cc1 (stereo unspecified) > 100 µM (inactive)

GET /values?readout=GI50&system=XF498&item= Sc1ccccc1S > 100 µM (inactive)

GET /values?readout=GI50&system=XF498&item= CS(=O)(=O)OCCCNCCCOS(C)(=O)=O 938 µM (inactive)

GET /values?readout=GI50&system=XF498&item= CC1CC(C)(O)C2C3(C)CCCC2(COC3=O)C12CCC1(CCOC1=O)O2 (stereo unspecified) 38.3 µM (inactive)

GET /values?readout=GI50&system=XF498&item= O=C(CC1C(=O)Nc2ccccc2[S+]1[O-])Nc1ccccc1 (stereo unspecified) > 100 µM (inactive)

GET /values?readout=GI50&system=XF498&item= O=C1CCCC[C@H]1[C@H]1CCC[C@@H]([C@H]2CCCCC2=O)C1=O > 100 µM (inactive)

GET /values?readout=GI50&system=XF498&item= COC(=O)c1sc(=O)n(-c2ccccc2)c1SCc1ccccc1 > 100 µM (inactive)

GET /values?readout=GI50&system=XF498&item= O=C(CCc1ccccc1)CC1OC(=O)C(Cl)=C1Cl (stereo unspecified) 25.7 µM (inactive)

----------
Task for the reader: assign each of the following compounds its reported GI50.
system: SK-OV-3; assay: NCI tumour cell line growth inhibition, 48 h
Active and inactive are the calls of the source. Rule as the data show it: active = GI50 up to about 1.1 µM and inactive = higher.

Returns the measured GI50 for the input compound. Input: CC(C)[C@H](CCl)NC(=O)c1cccc(C(=O)N[C@H](CCl)C(C)C)n1 (stereo in doubt) > 100 µM (inactive)

Returns the measured GI50 for the input compound. Input: C/C(=C\[Si](C)(C)c1ccco1)C(C)(O)[C@H](C)O (stereo not given in full) > 100 µM (inactive)

Returns the measured GI50 for the input compound. Input: CCOC(=O)C(NC(C)=O)(Nc1ccc(S(N)(=O)=O)cc1)C(F)(F)F (stereo not given) > 100 µM (inactive)

Returns the measured GI50 for the input compound. Input: CC(C)=CC(=O)N1CCN(C(=O)C=C(C)C)CC1 > 100 µM (inactive)

Returns the measured GI50 for the input compound. Input: CCOC(CN(C)C(=O)Nc1ccc(Cl)c(Cl)c1)OCC > 10 µM (inactive)
